So I've got a bunch of compounds here, and I need their CC50 at 24 h values.
experiment: in vitro; conditions: human

For the compound O=C(O)CNC(=O)c1c(O)c2ccccc2n(Cc2ccccc2)c1=O [IOX2] , give its reported CC50 at 24 h.
> 1000 µM

For the compound COC(=O)c1ccnc(C(=O)OC)c1 [dimethyl 2,4-PDCA, dimethylpyridine-2,4-dicarboxylate] , give its reported CC50 at 24 h.
> 1000 µM

For the compound CCOC(=O)CCNc1cc(N2CCc3ccccc3CC2)nc(-c2ccccn2)n1 [GSK-J4] , give its reported CC50 at 24 h.
115 µM

# credit: paper PMC10983004
